Ref: PubChem BioAssay (NCI)

METHOD NOTES: NCI Yeast Anticancer Drug Screen. Data for the mlh1 rad18 strain (AID 175)
ASSAY CONDITIONS: S. cerevisiae mlh1 rad18 strain growth inhibition; at 50.0 µM; stronger effect = higher value
Protocol: Growth inhibition of yeast strains with defined genetic alterations is measured as a screen for potential anti-cancer activity. Selected strains with alterations in DNA damage repair or cell cycle control were exposed to compounds and growth inhibition was measured relative to vehicle treated controls. The strain used in this assay is mlh1 rad18
This is part of a sample that, as a whole, favours compounds with a hit. Of some 79,000 tested, about 15% had one in any assay.
Attribute: growth inhibition
Report only the number, with the unit % understood.

Solved cases below.
MOLECULE	MEASURE UNIT	OBSERVED
CCN1CCC(CC(c2ccccc2)c2ccccc2)C1 (stereo not given)	%	7
CCN(CC)C(=O)c1cncc(C(N)=O)c1	%	14.2
CC(C)(C#N)OC(=O)Nc1c(Cl)cccc1Cl	%	6.5
Cc1cc(N)ccc1N=Nc1ccc(Sc2ccc(N=Nc3c(S(=O)(=O)O)cc4cc(S(=O)(=O)O)c(N=Nc5ccc([N+](=O)[O-])cc5)c(N)c4c3O)cc2)cc1	%	-27.9

Kindly review the next molecule as well.
Recorded result, O=c1ccn2cnc3c(ncn3C3OC(CO)C(O)C3O)c2n1 (stereo not given) , growth inhibition: 9.85
